# Tested on: U2OS
# Assay notes: Multiplex assay against U2OS
# Assay type: toxicity, cell-based
# Run parameters: human, 12 h, 1 µM, compound concentration 1 uM, replicate 2
So I've got a bunch of compounds here, and I need their Population Mitochondria Different-Phenotype (%) values.
Numbers only, in %.

State the recorded Population Mitochondria Different-Phenotype (%) for every item in the following list.
1. COC[C@@H](c1ccc(C(F)(F)F)cc1)N1CCN(C2(C)CCN(C(=O)c3c(C)ncnc3C)CC2)C[C@@H]1C.O=C(O)/C=C\C(=O)O [VICRIVIROC MALEATE]
2. CC[C@@H](C)Nc1nc(C)nc2c(-c3ccc(OC)nc3C)c(C)nn12 [PEXACERFONT]
3. CC(C)COc1ccc(CNC(=O)N(Cc2ccc(F)cc2)C2CCN(C)CC2)cc1 [PIMAVANSERIN]
4. N#Cc1c(Oc2cccc(OS(=O)(=O)CCCC(F)(F)F)c2)cccc1C(F)(F)F
5. Cc1c(CC(=O)O)c2cccnc2n1Cc1ccc(S(C)(=O)=O)cc1C(F)(F)F [FEVIPIPRANT]
6. COc1cccc2c1c(NS(=O)(=O)c1ccc(Cl)s1)nn2Cc1cccc(CNC(=O)C(C)(C)O)c1

1: 14; 2: 0; 3: 4; 4: 7; 5: 1; 6: 3

Working through the 2 compounds below one at a time, give Population Mitochondria Different-Phenotype (%) for each.
1. CCCCC(=O)N(Cc1ccc(-c2ccccc2-c2nnn[nH]2)cc1)[C@H](C(=O)O)C(C)C
2. Br.CS(=O)(=O)Nc1c(O)ccc2c1CCCC2C1=NCCN1 (stereo not drawn)

5
1

====

# Tested on: Fibroblast
# Assay notes: Multiplex assay against human fibroblast
# Type: toxicity, cell-based
# Run parameters: 48 h, 1 µM, compound concentration 1 uM, replicate 1
Quantity: Population Mitotic Cells (%)
Answers are plain numbers, in %.

Some compounds with recorded Population Mitotic Cells (%):
* NCCc1cn(S(=O)(=O)c2c(Cl)nc3sccn23)c2ccccc12.O=C(O)C(=O)O | 50
* Cc1cnc(-c2cc(N3CCN(C(=O)CCS(C)(=O)=O)CC3)ncc2Cl)c(C)c1 | 30
* CC(/C=C1\SC(=S)N(CCCC(=O)Nc2ccc(C(=O)O)c(O)c2)C1=O)=C\c1ccccc1 | 21
* Cc1noc(-c2ccc(-c3ccc(CC(=O)O)cc3)cc2)c1NC(=O)O[C@H](C)c1ccccc1Cl | 55
* Cl.NCCc1ccc(O)c(O)c1 [DOPAMINE HYDROCHLORIDE] | 63

Give Population Mitotic Cells (%) for all compounds that follow.
1. CC(C)(C)c1cc(NC(=O)Nc2ccc(-c3cn4c(n3)sc3cc(OCCN5CCOCC5)ccc34)cc2)no1
2. CCCCC(=O)N(Cc1ccc(-c2ccccc2-c2nnn[nH]2)cc1)[C@H](C(=O)O)C(C)C
3. Cc1cccc(NC(=O)CN2CCC(c3ccccn3)CC2)c1.Cl.Cl
4. COc1cccc2c1c(NS(=O)(=O)c1ccc(Cl)s1)nn2Cc1cccc(CNC(=O)C(C)(C)O)c1

1: 25; 2: 20; 3: 20; 4: 37

====

For each of the molecules below, state its Population Fragmented Nuclei (%).
# Tested on: HEK-293T
# Assay notes: Multiplex assay against HEK293T
# Assay type: toxicity, cell-based
# Run parameters: human, 24 h, 1 µM, compound concentration 1 uM, replicate 1
One number for each entry, in %.

Use the examples below as a reference point.
- O=C(NCCN1CCC(n2c(=O)[nH]c3cc(Cl)ccc32)CC1)c1ccc(F)cc1 [HALOPEMIDE]: 7
- CC(/C=C1\SC(=S)N(CCCC(=O)Nc2ccc(C(=O)O)c(O)c2)C1=O)=C\c1ccccc1: 9
- Cc1cccc(NC(=O)CN2CCC(c3ccccn3)CC2)c1.Cl.Cl: 8

Give Population Fragmented Nuclei (%) for each listed item.
1. N#Cc1cc(F)cc(-c2nc(-c3ccc(F)cn3)no2)c1
2. CCCCC(=O)N(Cc1ccc(-c2ccccc2-c2nnn[nH]2)cc1)[C@H](C(=O)O)C(C)C

9
11

====

# System: U2OS
# Assay notes: Multiplex assay against U2OS
# Type: toxicity, cell-based
# Run parameters: human, 24 h, 10 µM, compound concentration 10 uM, replicate 1
Field: Population Mitotic Cells (%). Provide a value for each of the compounds that follow.
Give bare numbers, in %.

Here is how some compounds turned out for Population Mitotic Cells (%).
• Cc1noc(-c2ccc(-c3ccc(CC(=O)O)cc3)cc2)c1NC(=O)O[C@H](C)c1ccccc1Cl = 7
• CCc1cc2cc(NS(=O)(=O)c3ccc(C#N)cc3)ccc2n(CC)c1=O = 4
• O=C(NCCN1CCC(n2c(=O)[nH]c3cc(Cl)ccc32)CC1)c1ccc(F)cc1 [HALOPEMIDE] = 25
• N#Cc1cc(F)cc(-c2nc(-c3ccc(F)cn3)no2)c1 = 6
• CC(=O)Nc1cccc2c1c(Sc1ccc(Cl)cc1)c(C)n2CC(=O)O = 11
• NCCc1cn(S(=O)(=O)c2c(Cl)nc3sccn23)c2ccccc12.O=C(O)C(=O)O = 16
• CN[C@@H](C)C(=O)N[C@H](C(=O)N1CCC[C@H]1C(=O)Nc1snnc1-c1ccccc1)C1CCCCC1 = 31
• CCCCC(=O)N(Cc1ccc(-c2ccccc2-c2nnn[nH]2)cc1)[C@H](C(=O)O)C(C)C = 17
• CC[C@@H](C)Nc1nc(C)nc2c(-c3ccc(OC)nc3C)c(C)nn12 = 19
• CCCCC1=NC2(CCCC2)C(=O)N1Cc1ccc(-c2ccccc2-c2nnn[nH]2)cc1 = 4

Each compound below has a recorded value; state its Population Mitotic Cells (%).
1. Cc1cccc(NC(=O)CN2CCC(c3ccccn3)CC2)c1.Cl.Cl
2. CC(C)(C)c1cc(NC(=O)Nc2ccc(-c3cn4c(n3)sc3cc(OCCN5CCOCC5)ccc34)cc2)no1
3. CN1CCN(c2cc(-c3ccccc3)nc(N)n2)CC1
4. CCCCCC(O)/C=C/[C@H]1C(=O)CC(O)C1C/C=C\CCCC(=O)O (some centres undefined)

14
36
0
0

====

# Tested on: HEK-293T
# Assay notes: Multiplex assay against HEK293T
# Type: toxicity, cell-based
# Run parameters: human, 48 h, 1 µM, compound concentration 1 uM, replicate 1
Quantity: Population Tubulin-Different-Phenotype (%)
One number for each entry, in %.

- CCCOc1ccc2[nH]cc(C3=CCNCC3)c2n1.Cl: 12
- N#Cc1c(Oc2cccc(OS(=O)(=O)CCCC(F)(F)F)c2)cccc1C(F)(F)F: 15

Below are some compounds; for each one, tell me its Population Tubulin-Different-Phenotype (%).
1. CCCCC(=O)N(Cc1ccc(-c2ccccc2-c2nnn[nH]2)cc1)[C@H](C(=O)O)C(C)C
2. CC(C)(C)c1cc(NC(=O)Nc2ccc(-c3cn4c(n3)sc3cc(OCCN5CCOCC5)ccc34)cc2)no1 [QUIZARTINIB]
3. CC(/C=C1\SC(=S)N(CCCC(=O)Nc2ccc(C(=O)O)c(O)c2)C1=O)=C\c1ccccc1
4. COC[C@@H](c1ccc(C(F)(F)F)cc1)N1CCN(C2(C)CCN(C(=O)c3c(C)ncnc3C)CC2)C[C@@H]1C.O=C(O)/C=C\C(=O)O [VICRIVIROC MALEATE]
5. CN1CCN(c2cc(-c3ccccc3)nc(N)n2)CC1
6. CCc1cc2cc(NS(=O)(=O)c3ccc(C#N)cc3)ccc2n(CC)c1=O

1. 7
2. 15
3. 14
4. 12
5. 12
6. 13

Can you share its Population Tubulin-Different-Phenotype (%)? I mean this compound: O=C(NCCN1CCC(n2c(=O)[nH]c3cc(Cl)ccc32)CC1)c1ccc(F)cc1 [HALOPEMIDE] 16

====

# System: HEK-293T
# Assay notes: Multiplex assay against HEK293T
# Format: toxicity, cell-based
# Run parameters: human, 24 h, 10 µM, compound concentration 10 uM, replicate 2
Quantity: Population Mitotic Cells (%)

Below: 4 compounds and their reported Population Mitotic Cells (%).
* O=C(NCCN1CCC(n2c(=O)[nH]c3cc(Cl)ccc32)CC1)c1ccc(F)cc1 [HALOPEMIDE] | 35%
* Cc1noc(-c2ccc(-c3ccc(CC(=O)O)cc3)cc2)c1NC(=O)O[C@H](C)c1ccccc1Cl | 68%
* Cc1cnc(-c2cc(N3CCN(C(=O)CCS(C)(=O)=O)CC3)ncc2Cl)c(C)c1 | 48%
* N#Cc1c(Oc2cccc(OS(=O)(=O)CCCC(F)(F)F)c2)cccc1C(F)(F)F | 54%

Lab note: need Population Mitotic Cells (%) for CN[C@@H](C)C(=O)N[C@H](C(=O)N1CCC[C@H]1C(=O)Nc1snnc1-c1ccccc1)C1CCCCC1 [GDC-0152] on HEK-293T, anyone have it? 40%

====

# Test system: Fibroblast
# Assay notes: Multiplex assay against human fibroblast
# Format: toxicity, cell-based
# Run parameters: 12 h, 1 µM, compound concentration 1 uM, replicate 1
What Population Pyknosed Nuclei (%) was measured for each of the following?
Field: value (include unit after the number)

- CN1CCN(c2cc(-c3ccccc3)nc(N)n2)CC1: 15%
- Cl.N=C(N)NC(=O)Cc1c(Cl)cccc1Cl [GUANFACINE HYDROCHLORIDE]: 16%
- O=C(NCCN1CCC(n2c(=O)[nH]c3cc(Cl)ccc32)CC1)c1ccc(F)cc1 [HALOPEMIDE]: 26%
- COc1ccccc1N1CCN(C[C@@H](C(=O)NC(C)(C)C)c2ccccc2)CC1.Cl.Cl: 16%
- CC(C)(C)c1cc(NC(=O)Nc2ccc(-c3cn4c(n3)sc3cc(OCCN5CCOCC5)ccc34)cc2)no1: 17%
- COC[C@@H](c1ccc(C(F)(F)F)cc1)N1CCN(C2(C)CCN(C(=O)c3c(C)ncnc3C)CC2)C[C@@H]1C.O=C(O)/C=C\C(=O)O [VICRIVIROC MALEATE]: 22%
- CC(=O)Nc1cccc2c1c(Sc1ccc(Cl)cc1)c(C)n2CC(=O)O: 19%
- Br.CS(=O)(=O)Nc1c(O)ccc2c1CCCC2C1=NCCN1 (centres undefined): 14%
- Cc1c(CC(=O)O)c2cccnc2n1Cc1ccc(S(C)(=O)=O)cc1C(F)(F)F: 18%
- NCCc1cn(S(=O)(=O)c2c(Cl)nc3sccn23)c2ccccc12.O=C(O)C(=O)O: 14%

Each compound below has a recorded value; state its Population Pyknosed Nuclei (%).
1. Cc1sc2c(c1C)C(c1ccc(Cl)cc1)=N[C@@H](CC(=O)NCCCCCCCCNC(=O)COc1cccc3c1C(=O)N(C1CCC(=O)NC1=O)C3=O)c1nnc(C)n1-2 (some centres undefined)
2. Cc1onc(-c2ccccc2Cl)c1C(=O)N(C)c1ccc(Cl)cc1

16%
13%

Could you tell me Population Pyknosed Nuclei (%) for each of these compounds? They are listed below.
1. CC(/C=C1\SC(=S)N(CCCC(=O)Nc2ccc(C(=O)O)c(O)c2)C1=O)=C\c1ccccc1
2. O=C(CCCc1ccccc1)Nc1nc2ccccc2c(=O)s1
3. Cl.NCCc1ccc(O)c(O)c1 [DOPAMINE HYDROCHLORIDE]
4. Cc1cccc(NC(=O)CN2CCC(c3ccccn3)CC2)c1.Cl.Cl
5. CCCOc1ccc2[nH]cc(C3=CCNCC3)c2n1.Cl

13%
23%
23%
12%
15%

// each compound listed below needs its Population Pyknosed Nuclei (%)
1. O=C1[C@H](Cc2ccc(O)cc2)N2C(=O)CCN(C(=O)NCc3ccccc3)[C@H]2CN1Cc1cccc2ccccc12
2. N#Cc1c(Oc2cccc(OS(=O)(=O)CCCC(F)(F)F)c2)cccc1C(F)(F)F

["24%", "23%"]

Where these numbers come from: ChEMBL document CHEMBL5058577
